- Tested on: HCV replicon, genotype-1a variant with glutamine 30 changed to glutamate in the NS5A protein
- Measurement notes: microbe, parasite or virus in culture
- Assay type: cell-based, HCV genotype 1a
- Assay context: HCV replicon genotype 1a Q30E (Q→E) variant; test compound titrated with an NS5A-targeting compound (BMS-790052 fixed at 200 nM); ranking of synergist activity
So I've got a bunch of molecules here, and I need their Fold-Synergistic 1a (Q30E) values.

Below, 4 molecules whose answers are already recorded.
So what does the record say about Fold-Synergistic 1a (Q30E) for O=C(Cc1cccc2ccccc12)N1CCC[C@H]1c1ncc(-c2ccc(-c3ccc(-c4cnc([C@@H]5CCCN5C(=O)Cc5cccc6ccccc56)[nH]4)cc3)cc2)[nH]1 ? >10 fold

So what does the record say about Fold-Synergistic 1a (Q30E) for O=C(Cc1ccncc1)N1CCC[C@H]1c1ncc(-c2ccc(-c3ccc(-c4cnc([C@@H]5CCCN5C(=O)Cc5ccncc5)[nH]4)cc3)cc2)[nH]1 ? <10 fold

So what does the record say about Fold-Synergistic 1a (Q30E) for COC(=O)N[C@@H](C(=O)NC1(c2nc(-c3ccc(-c4ccc(-c5c[nH]c(C6(NC(=O)[C@H](NC(=O)OC)C(C)C)CC=CC6)n5)cc4)cc3)c[nH]2)CC=CC1)C(C)C ? <10 fold

So what does the record say about Fold-Synergistic 1a (Q30E) for CC1([C@H](NC(=O)[C@@]2(C)CCCCO2)c2nc(-c3ccc(-c4ccc(-c5c[nH]c([C@@H](NC(=O)[C@@]6(C)CCCCO6)C6(C)CC6)n5)cc4)cc3)c[nH]2)CC1 ? >100 fold

Turning now to a further molecule:
So what does the record say about Fold-Synergistic 1a (Q30E) for CC1([C@H](NC(=O)C2(N3CCC(F)(F)CC3)COC2)c2nc(-c3ccc(-c4ccc(-c5c[nH]c([C@@H](NC(=O)C6(N7CCC(F)(F)CC7)COC6)C6(C)CC6)n5)cc4)cc3)c[nH]2)CC1 ? >100 fold

* * *

- Test system: HCV replicon, genotype-1a variant with glutamine 30 changed to glutamate in the NS5A protein
- Measurement notes: microbe, parasite or virus in culture
- Assay type: cell-based, HCV genotype 1a
- Assay context: HCV replicon genotype 1a Q30E (Q→E) variant; test compound titrated with an NS5A-targeting compound (BMS-790052 fixed at 200 nM); ranking of synergist activity
So I've got a bunch of compounds here, and I need their Fold-Synergistic 1a (Q30E) values.

Please report Fold-Synergistic 1a (Q30E) for every entry that follows.
1. CC(C)(C)[C@H](NC(=O)C1CCOC1)c1nc(-c2ccc(-c3ccc(-c4c[nH]c([C@@H](NC(=O)C5CCOC5)C(C)(C)C)n4)cc3)cc2)c[nH]1 (some centres unmarked)
2. Cn1cc(C(=O)N2CCC[C@H]2c2ncc(-c3ccc(-c4ccc(-c5cnc([C@@H]6CCCN6C(=O)c6cn(C)c7ccccc67)[nH]5)cc4)cc3)[nH]2)c2ccccc21
3. CC(C)(C)[C@H](NC(=O)C(C)(C)n1cnnn1)c1nc(-c2ccc(-c3ccc(-c4c[nH]c([C@@H](NC(=O)C(C)(C)n5cnnn5)C(C)(C)C)n4)cc3)cc2)c[nH]1
4. O=C(c1ccc(C(F)(F)F)nc1)N1CCC[C@H]1c1ncc(-c2ccc(-c3ccc(-c4cnc([C@@H]5CCCN5C(=O)c5ccc(C(F)(F)F)nc5)[nH]4)cc3)cc2)[nH]1
5. CC(C)(C)[C@H](NC(=O)[C@@H]1COCCN1CC(F)(F)F)c1nc(-c2ccc(-c3ccc(-c4c[nH]c([C@@H](NC(=O)[C@@H]5COCCN5CC(F)(F)F)C(C)(C)C)n4)cc3)cc2)c[nH]1

1. >10 fold
2. >10 fold
3. >100 fold
4. >10 fold
5. >100 fold

* * *

- System: HCV replicon, genotype-1a variant with glutamine 30 changed to glutamate in the NS5A protein
- Measurement notes: microbe, parasite or virus in culture
- Type: cell-based, HCV genotype 1a
- Assay context: HCV replicon genotype 1a Q30E (Q→E) variant; test compound titrated with an NS5A-targeting compound (BMS-790052 fixed at 200 nM); ranking of synergist activity
Endpoint label: Fold-Synergistic 1a (Q30E)

Below, 2 molecules whose answers are already recorded.
So what does the record say about Fold-Synergistic 1a (Q30E) for CC1(C)CC(C(=O)N[C@H](c2nc(-c3ccc(-c4ccc(-c5c[nH]c([C@@H](NC(=O)C6CC(C)(C)C6)C(C)(C)C)n5)cc4)cc3)c[nH]2)C(C)(C)C)C1 [Compound L-53] ? >100 fold

So what does the record say about Fold-Synergistic 1a (Q30E) for COCC1(C(=O)N[C@H](c2nc(-c3ccc(-c4ccc(-c5c[nH]c([C@@H](NC(=O)C6(COC)CCCCO6)C(C)(C)C)n5)cc4)cc3)c[nH]2)C(C)(C)C)CCCCO1 (stereo partly drawn) [Compound P-183] ? >100 fold

Turning now to a further molecule:
So what does the record say about Fold-Synergistic 1a (Q30E) for CC(C)(C)[C@H](NC(=O)C1CCC(C(F)F)CC1)c1nc(-c2ccc(-c3ccc(-c4c[nH]c([C@@H](NC(=O)C5CCC(C(F)F)CC5)C(C)(C)C)n4)cc3)cc2)c[nH]1 (stereo partly drawn) [Compound Y-71] ? >100 fold

* * *

So I've got a bunch of compounds here, and I need their Fold-Synergistic 1a (Q30E) values.
- System: HCV replicon, genotype-1a variant with glutamine 30 changed to glutamate in the NS5A protein
- Measurement notes: microbe, parasite or virus in culture
- Assay type: cell-based, HCV genotype 1a
- Assay context: HCV replicon genotype 1a Q30E (Q→E) variant; test compound titrated with an NS5A-targeting compound (BMS-790052 fixed at 200 nM); ranking of synergist activity

Below, 8 compounds whose answers are already recorded.
So what does the record say about Fold-Synergistic 1a (Q30E) for CC(C)(C)[C@H](NC(=O)C(F)(F)C1(O)CCC1)c1nc(-c2ccc(-c3ccc(-c4c[nH]c([C@@H](NC(=O)C(F)(F)C5(O)CCC5)C(C)(C)C)n4)cc3)cc2)c[nH]1 [Compound P-165] ? >100 fold

So what does the record say about Fold-Synergistic 1a (Q30E) for CC1([C@H](NC(=O)C(=O)N2CCC(C(F)(F)F)CC2)c2nc(-c3ccc(-c4ccc(-c5c[nH]c([C@@H](NC(=O)C(=O)N6CCC(C(F)(F)F)CC6)C6(C)CC6)n5)cc4)cc3)c[nH]2)CC1 [Compound W-59] ? >100 fold

So what does the record say about Fold-Synergistic 1a (Q30E) for CCCC(C)(C)C(=O)N[C@H](c1nc(-c2ccc(-c3ccc(-c4c[nH]c([C@@H](NC(=O)C(C)(C)CCC)C(C)(C)C)n4)cc3)cc2)c[nH]1)C(C)(C)C [Compound S-281] ? >100 fold

So what does the record say about Fold-Synergistic 1a (Q30E) for CC1(C)CCCC(C)(C(=O)N[C@H](c2nc(-c3ccc(-c4ccc(-c5c[nH]c([C@@H](NC(=O)C6(C)CCCC(C)(C)O6)C(C)(C)C)n5)cc4)cc3)c[nH]2)C(C)(C)C)O1 (stereo partly shown) [Compound W-168] ? >10 fold

So what does the record say about Fold-Synergistic 1a (Q30E) for CC(C)(C)[C@H](NC(=O)C1(CO)CCCCO1)c1nc(-c2ccc(-c3ccc(-c4c[nH]c([C@@H](NC(=O)C5(CO)CCCCO5)C(C)(C)C)n4)cc3)cc2)c[nH]1 (stereo partly shown) [Compound P-180] ? >100 fold

So what does the record say about Fold-Synergistic 1a (Q30E) for O=C(c1cccc(-c2ccccc2)c1)N1CCC[C@H]1c1ncc(-c2ccc(-c3ccc(-c4cnc([C@@H]5CCCN5C(=O)c5cccc(-c6ccccc6)c5)[nH]4)cc3)cc2)[nH]1 [Compound S-128] ? >10 fold

So what does the record say about Fold-Synergistic 1a (Q30E) for CC(C)N(C(=O)OC1(C(=O)N[C@H](c2nc(-c3ccc(-c4ccc(-c5c[nH]c([C@@H](NC(=O)C6(OC(=O)N(C(C)C)C(C)C)CC6)C(C)(C)C)n5)cc4)cc3)c[nH]2)C(C)(C)C)CC1)C(C)C [Compound L-38] ? >100 fold

So what does the record say about Fold-Synergistic 1a (Q30E) for COc1cnc(C(=O)N2CCC[C@H]2c2ncc(-c3ccc(-c4ccc(-c5cnc([C@@H]6CCCN6C(=O)c6ncc(OC)c7ccccc67)[nH]5)cc4)cc3)[nH]2)c2ccccc12 [Compound S-199] ? >100 fold

Please report Fold-Synergistic 1a (Q30E) for every entry that follows.
1. COc1ccc(C2(C(=O)N3CCC[C@H]3c3ncc(-c4ccc(-c5ccc(-c6cnc([C@@H]7CCCN7C(=O)C7(c8ccc(OC)cc8)CCCC7)[nH]6)cc5)cc4)[nH]3)CCCC2)cc1 [Compound S-158]
2. O=C(c1cccc2c1OCC2)N1CCC[C@H]1c1ncc(-c2ccc(-c3ccc(-c4cnc([C@@H]5CCCN5C(=O)c5cccc6c5OCC6)[nH]4)cc3)cc2)[nH]1 [Compound S-139]

1. <10 fold
2. >10 fold
